Every entry's value here was drawn from patent US8637557B2.

target: human PI 3-kinase p120γ (Homo sapiens, UniProt P48736); construct: purchased Millipore Corporation; assay: PI 3-kinase p120γ enzyme activity inhibition test; type: biochemical; settings: ATP 10.0 μM, PIP2-PS 5.0 μM, 30° C., 2 hours; read-out: PI3Kγ (IC50 value class)
Sequence (P48736 whole entry): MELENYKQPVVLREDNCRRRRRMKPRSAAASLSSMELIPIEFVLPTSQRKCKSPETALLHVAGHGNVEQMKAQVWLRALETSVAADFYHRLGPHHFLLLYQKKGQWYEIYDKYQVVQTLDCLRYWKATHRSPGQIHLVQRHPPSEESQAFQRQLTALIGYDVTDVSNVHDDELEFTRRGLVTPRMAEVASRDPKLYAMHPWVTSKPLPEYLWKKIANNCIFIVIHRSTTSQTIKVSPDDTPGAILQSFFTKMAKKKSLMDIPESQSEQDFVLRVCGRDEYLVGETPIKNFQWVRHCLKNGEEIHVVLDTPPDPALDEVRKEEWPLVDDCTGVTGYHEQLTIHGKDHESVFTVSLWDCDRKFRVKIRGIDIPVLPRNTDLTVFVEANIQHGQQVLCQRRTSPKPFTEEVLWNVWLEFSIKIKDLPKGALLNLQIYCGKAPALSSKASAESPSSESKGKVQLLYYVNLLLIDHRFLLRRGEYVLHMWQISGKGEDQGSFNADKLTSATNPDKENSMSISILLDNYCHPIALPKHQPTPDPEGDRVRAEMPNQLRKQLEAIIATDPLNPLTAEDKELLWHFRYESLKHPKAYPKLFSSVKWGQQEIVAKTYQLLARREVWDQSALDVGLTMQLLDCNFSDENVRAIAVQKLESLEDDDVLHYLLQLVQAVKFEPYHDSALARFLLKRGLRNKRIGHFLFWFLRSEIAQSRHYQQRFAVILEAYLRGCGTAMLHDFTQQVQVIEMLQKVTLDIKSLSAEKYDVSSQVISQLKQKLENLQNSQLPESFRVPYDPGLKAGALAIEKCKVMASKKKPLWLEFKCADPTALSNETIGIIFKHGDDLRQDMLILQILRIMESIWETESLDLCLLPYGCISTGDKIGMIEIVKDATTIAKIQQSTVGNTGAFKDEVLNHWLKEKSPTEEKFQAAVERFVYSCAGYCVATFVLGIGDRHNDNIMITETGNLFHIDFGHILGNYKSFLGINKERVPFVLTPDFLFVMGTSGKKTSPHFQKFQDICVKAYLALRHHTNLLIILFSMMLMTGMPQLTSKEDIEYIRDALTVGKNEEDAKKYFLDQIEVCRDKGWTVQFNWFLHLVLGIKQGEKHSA
MEASURED_ATTRIBUTE: IC50

Task item: Suppose we examine the compound CC(=O)Nc1nc(C)c(-c2nc(-c3ccccc3)no2)s1 [Example 7] ; what IC50 value has been reported?
Reply: < 100 nM

Task item: Try the compound Cc1nc(NC(=O)NCCC(=O)N2CCN(C(=O)OC(C)(C)C)CC2)sc1-c1nc(CC(F)(F)F)no1 [Example 168]
Reply: 100 to 500 nM

Task item: Try the compound Cc1nc(NC(=O)NCCC(=O)N2CCC(O)CC2)sc1-c1nc(-c2cccnc2)no1 [Example 150]
Reply: < 100 nM

Task item: Try the compound CC(=O)Nc1nc(C)c(-c2nc(CC3(CO)CC3)no2)s1 [Example 48]
Reply: < 100 nM

Task item: Try the compound CC(=O)Nc1nc(C)c(-c2nc(C(=O)NCC(C)O)no2)s1 (centres unmarked) [Example 91]
Reply: 100 to 500 nM

Task item: Try the compound CC(=O)Nc1nc(C)c(-c2nc(CC(C)(C)CF)no2)s1 [Example 95]
Reply: < 100 nM

Task item: Try the compound CCOC(=O)Nc1nc(C)c(-c2nc(CC(C)(C)CO)no2)s1 [Example 158]
Reply: < 100 nM

Task item: Try the compound Cc1nc(NC(=O)OCCC(=O)OC(C)(C)C)sc1-c1nc(-c2cccnc2)no1 [Example 129]
Reply: < 100 nM

Task item: Try the compound CC(=O)Nc1nc(C)c(-c2nc(-c3ccc(=O)[nH]c3)no2)s1 [Example 40]
Reply: 100 to 500 nM

Task item: Try the compound CC(=O)Nc1nc(C)c(-c2nc(CC3(CO)COC3)no2)s1 [Example 57]
Reply: 100 to 500 nM

Task item: Try the compound CC(=O)Nc1nc(C)c(-c2nc(-c3cncc(C)c3)no2)s1 [Example 15]
Reply: < 100 nM

Task item: Try the compound CC(=O)Nc1nc(C)c(-c2nc(CC(C)(C)C(C)=O)no2)s1 [Example 86]
Reply: < 100 nM

Task item: Try the compound CC(=O)Nc1nc(C)c(-c2nc(-c3ccc(=O)n(C)c3)no2)s1 [Example 39]
Reply: 100 to 500 nM

Task item: Try the compound CC(=O)Nc1nc(C)c(-c2nc(-c3ccccc3CO)no2)s1 [Example 29]
Reply: < 100 nM

Task item: Try the compound CC(=O)Nc1nc(C)c(-c2nc(C(C)(C)O)no2)s1 [Example 64]
Reply: < 100 nM

Task item: Try the compound CC(=O)Nc1nc(C)c(-c2nc(C(N)=O)no2)s1 [Example 70]
Reply: 100 to 500 nM

Task item: Try the compound CC(=O)Nc1nc(C)c(-c2nc(Cc3cccc(O)c3)no2)s1 [Example 49]
Reply: 100 to 500 nM

Task item: Try the compound CC(=O)Nc1nc(C)c(-c2nc([C@H](O)C(C)(C)C)no2)s1 [Example 69]
Reply: < 100 nM

Task item: Try the compound CCC(CC)(CO)Cc1noc(-c2sc(NC(C)=O)nc2C)n1 [Example 46]
Reply: < 100 nM

Task item: Try the compound CC(=O)Nc1nc(C)c(-c2nc(Cc3cccnc3)no2)s1 [Example 8]
Reply: 500 to 10000 nM

Task item: Try the compound Cc1nc(N)sc1-c1nc(CC(F)(F)F)no1 [Example 146]
Reply: < 100 nM

Task item: Try the compound CC(=O)Nc1nc(C)c(-c2nc(/C=C(\C)CO)no2)s1 [Example 98]
Reply: < 100 nM

Task item: Try the compound CC(=O)Nc1nc(C)c(-c2nc(-c3cnccn3)no2)s1 [Example 23]
Reply: < 100 nM

Task item: Try the compound CC(=O)Nc1nc(C)c(-c2nc(CS(C)(=O)=O)no2)s1 [Example 24]
Reply: < 100 nM

Task item: Try the compound CC(=O)Nc1nc(C)c(-c2nc(CCCOC(C)=O)no2)s1 [Example 30]
Reply: 500 to 10000 nM

Task item: Try the compound CNC(=O)c1noc(-c2sc(NC(C)=O)nc2C)n1 [Example 78]
Reply: 100 to 500 nM

Task item: Try the compound COCCCC(=O)Nc1nc(C)c(-c2nc(-c3cccnc3)no2)s1 [Example 128]
Reply: < 100 nM

Task item: Try the compound CC(=O)Nc1nc(C)c(-c2nc(C(C)NC(=O)OC(C)(C)C)no2)s1 (centres unmarked) [Example 74]
Reply: 500 to 10000 nM

Task item: Try the compound CC(=O)Nc1nc(C)c(-c2nc(C(=O)NC3COC3)no2)s1 [Example 96]
Reply: 100 to 500 nM

Task item: Try the compound CC(=O)Nc1nc(C)c(-c2nc(-c3ccc(C)nc3)no2)s1 [Example 17]
Reply: < 100 nM

Task item: Try the compound Cc1nc(NC(=O)NCCC(=O)OC(C)(C)C)sc1-c1nc(-c2cncnc2)no1 [Example 141]
Reply: < 100 nM

Task item: Try the compound CC(=O)Nc1nc(C)c(-c2nc(C(=O)N3CC(O)C3)no2)s1 [Example 90]
Reply: 100 to 500 nM

Task item: Try the compound CC(=O)Nc1nc(C)c(-c2nc(CCC(C)(C)O)no2)s1 [Example 47]
Reply: 100 to 500 nM

Task item: Try the compound CC(=O)Nc1nc(C)c(-c2nc(N3CCOCC3)no2)s1 [Example 87]
Reply: 100 to 500 nM

Task item: Try the compound CC(=O)Nc1nc(C)c(-c2nc(C3CCCOC3)no2)s1 (centres unmarked) [Example 112]
Reply: < 100 nM

Task item: Try the compound COCCc1noc(-c2sc(NC(=O)NCCC(=O)OC(C)(C)C)nc2C)n1 [Example 154]
Reply: < 100 nM

Task item: Try the compound CC(=O)Nc1nc(C)c(-c2nc(C(=O)C(C)(C)C)no2)s1 [Example 88]
Reply: 100 to 500 nM

Task item: Try the compound CC(=O)Nc1nc(C)c(-c2nc(CC(C)(C)S(N)(=O)=O)no2)s1 [Example 107]
Reply: 100 to 500 nM
